pIC50: −log10 of the molar value.
Ok so here's the combined literature set: pIC50 for Receptor tyrosine-protein kinase erbB-2 (Homo sapiens, UniProt P04626).

Record CN1CCC[C@@H]1/C=C/C(=O)Nc1ccc2ncnc(Nc3ccc(OCc4ccccn4)c(Cl)c3)c2c1OCCF : what is its pIC50 with Receptor tyrosine-protein kinase erbB-2 (Homo sapiens, UniProt P04626)? > 8.00

Record CCOc1c(NC(=O)/C=C/[C@H]2CCCN2C)ccc2ncnc(Nc3ccc(OCc4cccc(C)n4)c(Cl)c3)c12 : what is its pIC50 with Receptor tyrosine-protein kinase erbB-2 (Homo sapiens, UniProt P04626)? > 8.00

Record COc1cc2ncnc(Nc3cc(C)c(Oc4ccn5ncnc5c4)cc3OC)c2cc1NC(=O)/C(F)=C/[C@H]1CCCN1C : what is its pIC50 with Receptor tyrosine-protein kinase erbB-2 (Homo sapiens, UniProt P04626)? ≥ 7.30

Record [2H]C([2H])([2H])Oc1c(NC(=O)/C=C/[C@H]2CCCN2C(C)C)ccc2ncnc(Nc3ccc(OCc4ccccn4)c(Cl)c3)c12 : what is its pIC50 with Receptor tyrosine-protein kinase erbB-2 (Homo sapiens, UniProt P04626)? > 8.00

Record CN(C)C/C=C/C(=O)Nc1ccc2ncnc(Nc3cccc(Cl)c3F)c2c1OCCC(C)(C)O : what is its pIC50 with Receptor tyrosine-protein kinase erbB-2 (Homo sapiens, UniProt P04626)? 7.00 to 8.00

Record COc1c(NC(=O)/C=C/CN2CCCCC2)ccc2ncnc(Nc3ccc(OCc4ccccn4)c(Cl)c3)c12 : what is its pIC50 with Receptor tyrosine-protein kinase erbB-2 (Homo sapiens, UniProt P04626)? > 8.00

Record CN(C)C/C=C/C(=O)Nc1ccc2ncnc(Nc3ccc(Cl)c(Cl)c3F)c2c1OCCO : what is its pIC50 with Receptor tyrosine-protein kinase erbB-2 (Homo sapiens, UniProt P04626)? 7.00 to 8.00

###

Ok so here's the combined literature set: IC50 for Receptor tyrosine-protein kinase erbB-2 (Homo sapiens, UniProt P04626).

Record C=CC(=O)N1CCC(Nc2cc3c(Nc4cc(Cl)c(Oc5cccc(F)c5)cc4OC)ncnc3cc2OC)CC1 : what is its IC50 with Receptor tyrosine-protein kinase erbB-2 (Homo sapiens, UniProt P04626)? ≤ 50 nM

Record CN(C)C/C=C/C(=O)Nc1ccc2ncnc(Nc3cccc(Cl)c3F)c2c1OCCCF : what is its IC50 with Receptor tyrosine-protein kinase erbB-2 (Homo sapiens, UniProt P04626)? 10 to 100 nM

Record COc1cccc(COc2ccc(Nc3ncnc4ccc(NC(=O)/C=C/[C@H]5CCCN5C)c(OC)c34)cc2Cl)n1 : what is its IC50 with Receptor tyrosine-protein kinase erbB-2 (Homo sapiens, UniProt P04626)? < 10 nM

Record CCOc1c(NC(=O)/C=C/[C@H]2CCCN2C)ccc2ncnc(Nc3ccc(OCc4ccccn4)c(F)c3)c12 : what is its IC50 with Receptor tyrosine-protein kinase erbB-2 (Homo sapiens, UniProt P04626)? < 10 nM

###

pIC50: −log10 of the molar value.
Ok so here's the combined literature set: pIC50 for UniProtKB P04626.

Record CCN1CCC[C@@H]1/C=C/C(=O)Nc1ccc2ncnc(Nc3ccc(OCc4cccc(F)c4)c(Cl)c3)c2c1OC : what is its pIC50 with UniProtKB P04626? > 8.00

Record CN(C)C/C=C/C(=O)Nc1ccc2ncnc(Nc3cccc(Cl)c3F)c2c1OCCC(F)(F)F : what is its pIC50 with UniProtKB P04626? 6.00 to 7.00

Record COCCN1CCC[C@@H]1/C=C/C(=O)Nc1ccc2ncnc(Nc3ccc(OCc4cccc(F)c4)c(Cl)c3)c2c1OC : what is its pIC50 with UniProtKB P04626? > 8.00

Record CN1CCC[C@@H]1/C=C/C(=O)Nc1ccc2ncnc(Nc3ccc(OCc4ccccn4)c(Cl)c3)c2c1OCCCF : what is its pIC50 with UniProtKB P04626? > 8.00

Record COc1c(NC(=O)/C=C/[C@H]2CCCN2C(C)C)ccc2ncnc(Nc3ccc(OCc4ccccn4)c(Cl)c3)c12 : what is its pIC50 with UniProtKB P04626? > 8.00

Record COCCCOc1c(NC(=O)/C=C/[C@H]2CCCN2C)ccc2ncnc(Nc3ccc(OCc4ccccn4)c(Cl)c3)c12 : what is its pIC50 with UniProtKB P04626? > 8.00

Record COc1cc2ncnc(Nc3cc(Cl)c(Oc4cccc(F)c4)cc3OC)c2cc1NC(=O)/C(F)=C\[C@H]1CCCN1C : what is its pIC50 with UniProtKB P04626? ≥ 7.30

Record COCCN1CCC[C@@H]1/C=C/C(=O)Nc1ccc2ncnc(Nc3ccc(OCc4ccccn4)c(Cl)c3)c2c1OC : what is its pIC50 with UniProtKB P04626? > 8.00

Record COc1cc2ncnc(Nc3cc(C(F)(F)F)c(Oc4ccn5ncnc5c4)cc3OC)c2cc1NC(=O)/C(F)=C/[C@H]1CCCN1C : what is its pIC50 with UniProtKB P04626? ≥ 7.30

Record [2H]C([2H])([2H])Oc1c(NC(=O)/C=C/CN(C)C)ccc2ncnc(Nc3ccc(OCc4ccccn4)c(Cl)c3)c12 : what is its pIC50 with UniProtKB P04626? > 8.00

Record CN1CCC[C@@H]1/C=C/C(=O)Nc1ccc2ncnc(Nc3ccc(OCc4ccccn4)c(Cl)c3)c2c1OCC(F)F : what is its pIC50 with UniProtKB P04626? > 8.00

Record COCCOc1c(NC(=O)/C=C/[C@H]2CCCN2C)ccc2ncnc(Nc3ccc(Cl)c(Cl)c3F)c12 : what is its pIC50 with UniProtKB P04626? 7.00 to 8.00

Record COCCCCOc1c(NC(=O)/C=C/[C@H]2CCCN2C)ccc2ncnc(Nc3ccc(OCc4ccccn4)c(Cl)c3)c12 : what is its pIC50 with UniProtKB P04626? > 8.00

Record CCOc1c(NC(=O)/C=C/[C@H]2CCCN2C)ccc2ncnc(Nc3ccc(OCc4ccccn4)c(Cl)c3)c12 : what is its pIC50 with UniProtKB P04626? > 8.00

Record CN1CCC[C@@H]1/C=C/C(=O)Nc1ccc2ncnc(Nc3ccc(OCc4ccccn4)c(Cl)c3)c2c1OC1CC1 : what is its pIC50 with UniProtKB P04626? > 8.00

Record COc1cc2ncnc(Nc3cc(Cl)c(Oc4ccn5ncnc5c4)cc3OC)c2cc1NC(=O)/C(F)=C/[C@H]1CCCN1C : what is its pIC50 with UniProtKB P04626? ≥ 7.30

Record CN(C)C/C=C/C(=O)Nc1ccc2ncnc(Nc3cccc(Cl)c3F)c2c1OCC(C)(C)O : what is its pIC50 with UniProtKB P04626? 7.00 to 8.00

Record COc1c(NC(=O)/C=C/CN(C)C2CCC2)ccc2ncnc(Nc3ccc(OCc4ccccn4)c(Cl)c3)c12 : what is its pIC50 with UniProtKB P04626? > 8.00

Record CN1CCC[C@@H]1/C=C/C(=O)Nc1ccc2ncnc(Nc3ccc(OCc4ccccn4)c(Cl)c3)c2c1OCCC(F)(F)F : what is its pIC50 with UniProtKB P04626? > 8.00
